Documented melting point across a set of molecules
measuredProperty: melting point

linenotation=Cc1cc(C)c(Nc2nc(C)ncc2S(=O)(=O)c2ccc(OCc3ccccc3)cc2)c(C)c1 measuredproperty="melting point" result="166 to 168 °C"
linenotation=COc1ccc(S(=O)(=O)c2cnc(C)nc2Cc2c(C)cc(C)cc2C)cc1 measuredproperty="melting point" result="150 to 152 °C"
linenotation=Cc1cc(C)c(Nc2nc(C)ncc2S(=O)(=O)c2ccc(-n3ccnc3)cc2)c(C)c1 measuredproperty="melting point" result="230 to 232 °C"
linenotation=Cc1cc(C)c(Nc2nc(C)ncc2S(=O)(=O)c2ccc(-c3ccncc3)cc2)c(C)c1 measuredproperty="melting point" result="232 to 234 °C"
linenotation=Cc1cc(C)c(Nc2nc(C)ncc2S(=O)(=O)c2cccc(OCc3ccccc3)c2)c(C)c1 measuredproperty="melting point" result="112 to 115 °C"
linenotation=COc1ccc(Nc2nc(C)ncc2S(=O)(=O)c2ccc(OCc3ccccc3)cc2)c(C)n1 measuredproperty="melting point" result="160 to 165 °C"
linenotation=Cc1cc(C)c(Nc2nc(C)ncc2S(=O)(=O)c2ccc(N3CCCC3)cc2)c(C)c1 measuredproperty="melting point" result="196 to 198 °C"
linenotation=COc1ccccc1COc1ccc(S(=O)(=O)c2cnc(C)nc2Nc2c(C)cc(C)cc2C)cc1 measuredproperty="melting point" result="200 to 202 °C"
